Target: TDP-43 (Homo sapiens, UniProt Q13148 1-414)
Sequence (Q13148 whole entry): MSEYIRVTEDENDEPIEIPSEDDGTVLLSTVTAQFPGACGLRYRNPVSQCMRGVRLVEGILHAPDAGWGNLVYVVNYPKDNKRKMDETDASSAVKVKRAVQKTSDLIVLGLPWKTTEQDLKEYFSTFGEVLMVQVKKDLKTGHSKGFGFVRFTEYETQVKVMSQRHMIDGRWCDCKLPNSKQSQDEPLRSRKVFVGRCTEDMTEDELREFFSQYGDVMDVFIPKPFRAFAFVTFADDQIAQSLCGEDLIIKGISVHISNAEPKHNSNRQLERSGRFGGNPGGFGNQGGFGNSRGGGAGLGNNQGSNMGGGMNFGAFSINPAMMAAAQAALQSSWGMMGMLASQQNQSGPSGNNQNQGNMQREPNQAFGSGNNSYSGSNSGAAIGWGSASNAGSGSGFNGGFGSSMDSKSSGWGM
Test: RNA Bind-n-Seq with designed 260-mer pool; 25 mM Tris-HCl, 150 mM KCl, 3 mM MgCl2, BSA (printed 500 mg/mL), 20 units/mL SUPERase IN; pH not stated; 500 nM RNA pool, 1 h, 4 C; TDP-43 5, 50, 500 nM; high values mean tight binding
Conditions: protein: recombinant; tags: SBP (GST cleaved off with PreScission; pGEX-GST-SBP)
The full ranking holds about 9,900 sequences; the median of “r (bound/input frequency ratio)” is about 0.7, and the highest 2% start at about 6.5. This excerpt belongs to a sample that is enriched for the highest values.

binder	binding signal
ENSMUSG00000058297.300|Spock2 (ssRNA) RNA: GGGAGUUCUACAGUCCGACGAUCGCUUCGAUAUCCGCAUGCUAAGGGCCACCCUGAUGCCCAGGAAGAGUGAGGGCAGCCCCCUGUGUGGUGGAAGAGGCUGGGCAGCUAGCUACUGGGGACCUUGUGCUGAGGCUUCCAGGACAAAGCCCCAGUCUGGCUCUCCCCCAGCCUCUCAGGGGCACUGGCUGGUCACAUCCACUGAGUAUUGAUCGGUUGGACUUUAGGGAAGAGCCUCCUCCUUCCCAUUCCUUUCUGCCACCCUGGAAUGGCCACCUUAAUCGUCAUCUCCUCGGGGGGAAUACUCUUGCGGUCGCACUAGUGUGGAAUUCUCGGGUGUCAAGG	0.798 R (bound/input frequency ratio)
ENSMUSG00000022095.3|Fam160b2|123:127 (ssRNA) RNA: GGGAGUUCUACAGUCCGACGAUCGCUUCGAUAUCCGCAUGCUAAAGGAGCUGGCUGCCAUUGCGUUUGUCAAGUUUCCCCCACACGGUCCUUACCUGAACUUCUCUCCACCUCCAGAAGGGCAAGUCUGAGCCAGGAGCAUGACGGGUGGGGGAAGAUUCCUGCCACACAACUUCUGCCCACGGGCAGUCUCCUGCCUGGCCAUGCUGCCACUCUGUCCUCCAUGCCGGGGACUUCAGCUGCAGGACACCUCACCUGUUGACCCCACGAGCUGAGGUUUCAAGGAGGUGCUGGCUCCUAAGGCCUCUUGCGGUCGCACUAGUGUGGAAUUCUCGGGUGUCAAGG	0.205 R (bound/input frequency ratio)
ENSMUSG00000061578.112|Ksr2 (ssRNA) RNA: GGGAGUUCUACAGUCCGACGAUCGCUUCGAUAUCCGCAUGCUAACCCUUCUCCCAUUUUGUAAGAACACUGUUCUAACUCACCUCAUGCCCACGCUACCCUGGGCAACUGGAGAACACCAUAGCGUUUCAGCUGAUGUGACAUUUGGUGUGACCUUUACCAGUUCACCAUCAUUCAUGGCUUCCCCCAAAGUCCCGAGUCCUGAGAACCGGGGCUGUGGCAAGAGAGUUCUGGUGUGUUCUCUCUGUGGGGCUAGCAAUGCCGGGGUUAAGUUCUCCCUCGGUGAUGGAGACGGUCCUGGGUACUCUUGCGGUCGCACUAGUGUGGAAUUCUCGGGUGUCAAGG	0.565 R (bound/input frequency ratio)
ENSMUSG00000031028.412|Tub (ssRNA) RNA: GGGAGUUCUACAGUCCGACGAUCGCUUCGAUAUCCGCAUGCUACCUCAUCCCCUCUUCUUUUUGGUCCUUGGCUGGGUAGCAAAUUGGUGAGAAGAGCAGCCUAGUCUGUAAGAGUGCAGGGCAGCUGGAACCUUAGGCAGCUCCUCUGUAUGCUACCGGCUCCACACCCUAACACUCUCCACCCUCUGCUCCAAACCAGUUCUUCUGCAGAGUGGUGAUGUUAGCUUCCCCAGCUCCUCUCCAAGUCUAGCUUUUUCUGUCCUUCUGGCUCCAAGGUGCUCUGUGUCUGUGUGUGUGUGUCUCUCUUGCGGUCGCACUAGUGUGGAAUUCUCGGGUGUCAAGG	2.36 R (bound/input frequency ratio)
ENSMUSG00000031028.413|Tub (ssRNA) RNA: GGGAGUUCUACAGUCCGACGAUCGCUUCGAUAUCCGCAUGCUACCCCUCUUCUUUUUGGUCCUUGGCUGGGUAGCAAAUUGGUGAGAAGAGCAGCCUAGUCUGUAAGAGUGCAGGGCAGCUGGAACCUUAGGCAGCUCCUCUGUAUGCUACCGGCUCCACACCCUAACACUCUCCACCCUCUGCUCCAAACCAGUUCUUCUGCAGAGUGGUGAUGUUAGCUUCCCCAGCUCCUCUCCAAGUCUAGCUUUUUCUGUCCUUCUGGCUCCAAGGUGCUCUGUGUCUGUGUGUGUGUGUCUGUCUGUCUCUUGCGGUCGCACUAGUGUGGAAUUCUCGGGUGUCAAGG	3.56 R (bound/input frequency ratio)
ENSMUSG00000028439.189|Fam219a|1:11;21:28 (ssRNA) RNA: GGGAGUUCUACAGUCCGACGAUCGCUUCGAUAUCCGCAUGCUAACACACACACAUGUACCCGACACACACAUGAGCCUAUCUGUCCAGGGAACCAGAUUGGUGUCCGAGAUGAGGAAAUGGCUGUGGCCUGGGAAAUCAGUGAGAGGCCGCUUGGGAAUGAGAAUGCAGUGGACUGAAAGCACAGCCUGGCCAUCUGGAACCUGGGUUCUGGUCCCAGCCUCGGCAUUCUCCCUGAGCUCCUAAGCAAUUCCCAGGCUUCUCUAGGGCUUCAGUUCUCACAACUGGAAAAUAAAGAGUAGCUGCUCUUGCGGUCGCACUAGUGUGGAAUUCUCGGGUGUCAAGG	0.604 R (bound/input frequency ratio)
ENSMUSG00000032194.203|Kank2 (ssRNA) RNA: GGGAGUUCUACAGUCCGACGAUCGCUUCGAUAUCCGCAUGCUACUGCACCUUUCUCUAACUGGGGUUCCUUUCUGGCCCCAGGAUCUCAGUGUGGUUCGUGGGGGGAUUUUGUUGUUGUUUCUUUGUUUCUUUUCUUCAUAAAGAAGAAAAAGGAAACAACUUCUAGAUGUGCCUUGCGAUAGGGAGGACUUUGUCCUCUCAAGUCUCCCUGUCGUAUCCAGAUCACAGCUGAACCCACUGGGCCUUGGCGCCAAACCUCAGCAGGGCAGCAUUGAGACUCAUGGACUAAAGGAAAGUGUUCACUCUUGCGGUCGCACUAGUGUGGAAUUCUCGGGUGUCAAGG	0.26 R (bound/input frequency ratio)
